- tested.on: human A1 AR (Homo sapiens)
- Sequence (P30542 1-326): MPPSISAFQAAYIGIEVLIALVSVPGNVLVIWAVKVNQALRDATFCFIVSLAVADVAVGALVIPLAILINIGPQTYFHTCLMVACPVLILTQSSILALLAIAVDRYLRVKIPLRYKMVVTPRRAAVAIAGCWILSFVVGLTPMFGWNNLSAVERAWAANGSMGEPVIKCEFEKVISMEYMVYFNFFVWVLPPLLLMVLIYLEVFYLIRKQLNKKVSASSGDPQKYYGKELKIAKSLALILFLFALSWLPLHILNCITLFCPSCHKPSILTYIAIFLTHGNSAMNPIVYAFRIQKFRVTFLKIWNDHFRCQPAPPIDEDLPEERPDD
- procedure.details: Radioligand competition binding (125I-ABA) to human A1 AR in CHO K1 cell membranes
- applied.conditions: read-out: A1 ± SEM; Ki from competition binding, 125I-ABA, CHO K1 cell membranes
Ki values, listed per item
Just the number in nM, nothing appended.

Consider the reported Ki for these compounds:
- compound: "CCNC(=O)C1OC(n2cnc3c(N)nc(C#CC(O)C4CCCCC4)nc32)C(O)C1O (single isomer, unassigned) [JR-3159B]"
  quantity.name: "Ki"
  observed.value: 2
- compound: "CCNC(=O)C1OC(n2cnc3c(N)nc(C#CCC4CCNCC4)nc32)C(O)C1O (stereo not drawn) [JR-3261]"
  quantity.name: "Ki"
  observed.value: 47.3

Turning now to a further compound:
Problem: // lookup Ki | system=human A1 AR (Homo sapiens) | key= COC(=O)C1CCC(CC#Cc2nc(N)c3ncn(C4OC(CO)C(O)C4O)c3n2)CC1 (stereo not drawn) [JR-2145]
Result: 28.3

###

- tested.on: A3 AR (Homo sapiens)
- Sequence (P0DMS8 1-318): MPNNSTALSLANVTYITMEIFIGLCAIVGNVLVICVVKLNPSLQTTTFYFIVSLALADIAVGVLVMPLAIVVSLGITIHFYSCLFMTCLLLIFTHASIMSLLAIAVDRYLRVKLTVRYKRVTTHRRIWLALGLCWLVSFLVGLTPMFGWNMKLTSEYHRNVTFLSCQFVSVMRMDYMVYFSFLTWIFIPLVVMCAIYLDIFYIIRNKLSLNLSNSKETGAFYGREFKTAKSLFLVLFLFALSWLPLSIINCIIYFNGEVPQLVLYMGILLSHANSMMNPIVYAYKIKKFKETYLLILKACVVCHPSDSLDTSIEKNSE
- procedure.details: Radioligand competition binding (125I-ABA) to human A3 AR in HEK 293 cell membranes
- applied.conditions: selectivity ratio A3 over A2A
Assign labels as follows, please: yes for A3/A2A below 8; no for A3/A2A equal to or exceeding 8.

The following molecules have reported results that may help.
- molecule: "CCNC(=O)[C@H]1O[C@@H](n2cnc3c(N)nc(C#CCC4CCC(C(=O)O)CC4)nc32)C(O)C1O (stereo in doubt) [ATL-146a]"
  classification: "yes"
- molecule: "CC(=O)OCC1CCC(CC#Cc2nc(N)c3ncn(C4OC(CO)C(O)C4O)c3n2)CC1 (stereo not drawn) [JR-2147]"
  classification: "no"

Problem: Please check: A3/A2A for CCNC(=O)[C@H]1O[C@@H](n2cnc3c(N)nc(C#CCC4CCN(C(=O)OCC(C)C)CC4)nc32)C(O)C1O (stereo in doubt) [JR-4011] , strictly under 8 or not?
Result: no

Problem: Please check: A3/A2A for CCNC(=O)[C@H]1O[C@@H](n2cnc3c(N)nc(C#CCN4CCN(c5ncccn5)CC4)nc32)C(O)C1O (stereo in doubt) [JR-3283] , strictly under 8 or not?
Result: no

Problem: Please check: A3/A2A for CCNC(=O)[C@H]1O[C@@H](n2cnc3c(N)nc(C#CC4(O)CCCCC4C)nc32)C(O)C1O (single isomer, unassigned) [JR-3181A] , strictly under 8 or not?
Result: no
